Cited source: ChEMBL document CHEMBL1961873

inhibition for assorted compounds
- Target Desc: Macrophage-stimulating protein receptor (Homo sapiens)
- Protocol Conditions: at 1 µM
- Description: GSK_PKIS: RON mean inhibition at 1 uM [Nanosyn]

# Compound, Unit Label, inhibition
records = [
    ("CCN(CC)S(=O)(=O)c1ccc(OC)c(Nc2ncc(-c3ccccc3)o2)c1", "%", -1.9),
    ("NS(=O)(=O)c1ccc(Nc2ncc(-c3ccccc3)o2)cc1", "%", 6.45),
    ("COc1ccc2[nH]c3c4[nH]c5ccc(OC)cc5c4c4c(c3c2c1)C(=O)NC4=O", "%", 16.9),
    ("CNC(=O)c1cc(-c2ccc(F)cc2)cc(-c2ccc(S(=O)(=O)N3CCCC3)cc2)c1N", "%", 4.58),
    ("CCNC(=O)O[C@H]1CN[C@H](C#Cc2cc3ncnc(Nc4ccc(OCc5cccc(F)c5)c(Cl)c4)c3s2)C1", "%", 3.52),
    ("COc1ccc(-c2cc3c(N)ncnc3o2)cc1", "%", -1.06),
    ("COc1cccc(-n2ncc3c(N/N=C/c4ccc(F)cc4)ncnc32)c1", "%", 13.7),
    ("CCn1c(-c2nonc2N)nc2cnc(Oc3cccc(NC(=O)c4ccc(N(C)C)cc4)c3)cc21", "%", 1.27),
    ("CCn1c(-c2nonc2N)nc2ccccc21", "%", 2.21),
    ("CCOc1ccc2c(-c3ccnc(Nc4cccc(C(F)(F)F)c4)n3)cnn2n1", "%", -3.11),
    ("COc1cc2c(cc1Nc1nc(Nc3ccsc3C(N)=O)c3cc[nH]c3n1)N(C(=O)CN(C)C)CCC2(C)C", "%", 28.9),
    ("O=C(Nc1n[nH]c2cc(-c3ccc(F)cc3)ccc12)C1CC1", "%", 1.45),
    ("Fc1ccc(-c2nn3ccccc3c2-c2ccncc2)cc1", "%", 3.94),
    ("Nc1ncc(-c2cccc(S(N)(=O)=O)c2)c2scc(-c3ccc(F)c(Cl)c3)c12", "%", 15.8),
    ("CCN1CCC(CC(=O)Nc2n[nH]c3nnc(-c4cccc(F)c4F)cc23)CC1", "%", 1.81),
    ("COc1ccc2c(-c3ccnc(Nc4cccc(OC(F)(F)F)c4)n3)cnn2n1", "%", 9.83),
    ("CC1=C(C(=O)Nc2cc(Cl)c3[nH]ncc3c2)C(c2ccc(C(F)(F)F)cc2)CC(=O)N1 (stereo not drawn)", "%", 11.4),
    ("c1ccc(COc2ccc(Nc3ncnc4ccc(-c5ccco5)cc34)cc2)cc1", "%", 7.76),
    ("c1cc(-c2cnn3nc(N4CCOCC4)ccc23)nc(NC2CC2)n1", "%", 1.76),
    ("Clc1ccc(-c2nn3ncccc3c2-c2ccnc(Nc3ccccc3)n2)cc1", "%", 4.63),
    ("N#Cc1c(NC(=O)c2ccc(F)cc2)sc2c1CCCC2", "%", 2.12),
    ("FC(F)(F)c1cccc(-c2nn3ncccc3c2-c2ccnc(Nc3ccc4c(c3)OCCO4)n2)c1", "%", 4.5),
    ("c1ccc(-c2nc3n(c2-c2ccc4c(c2)OCO4)CCC3)nc1", "%", 1.59),
    ("CN1CCC(n2cnc(-c3ccc(F)cc3)c2-c2ccnc(N)n2)CC1", "%", -2.05),
    ("COc1cccc(-c2c[nH]c3c(N/N=C/c4ccncc4)ncnc23)c1", "%", 42.4),
    ("CNC(=O)c1cccc(C#Cc2cncnc2Nc2ccc(OCc3cccc(F)c3)c(Cl)c2)c1", "%", 0.88),
    ("NS(=O)(=O)c1ccc(N/N=C2\\C(=O)Nc3ccc4ncccc4c32)cc1", "%", 13.3),
    ("N#Cc1c(NC(=O)CN2CCOCC2)sc2c1CCCC2", "%", 6.37),
]

###

- Target Desc: Ribosomal protein S6 kinase alpha-6 (Homo sapiens) (UniProt Q9UK32);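 also: reported value is the mean inhibition of RSK4, from the GSK PKIS kinase inhibitor screen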
- Sequence (Q9UK32 whole entry): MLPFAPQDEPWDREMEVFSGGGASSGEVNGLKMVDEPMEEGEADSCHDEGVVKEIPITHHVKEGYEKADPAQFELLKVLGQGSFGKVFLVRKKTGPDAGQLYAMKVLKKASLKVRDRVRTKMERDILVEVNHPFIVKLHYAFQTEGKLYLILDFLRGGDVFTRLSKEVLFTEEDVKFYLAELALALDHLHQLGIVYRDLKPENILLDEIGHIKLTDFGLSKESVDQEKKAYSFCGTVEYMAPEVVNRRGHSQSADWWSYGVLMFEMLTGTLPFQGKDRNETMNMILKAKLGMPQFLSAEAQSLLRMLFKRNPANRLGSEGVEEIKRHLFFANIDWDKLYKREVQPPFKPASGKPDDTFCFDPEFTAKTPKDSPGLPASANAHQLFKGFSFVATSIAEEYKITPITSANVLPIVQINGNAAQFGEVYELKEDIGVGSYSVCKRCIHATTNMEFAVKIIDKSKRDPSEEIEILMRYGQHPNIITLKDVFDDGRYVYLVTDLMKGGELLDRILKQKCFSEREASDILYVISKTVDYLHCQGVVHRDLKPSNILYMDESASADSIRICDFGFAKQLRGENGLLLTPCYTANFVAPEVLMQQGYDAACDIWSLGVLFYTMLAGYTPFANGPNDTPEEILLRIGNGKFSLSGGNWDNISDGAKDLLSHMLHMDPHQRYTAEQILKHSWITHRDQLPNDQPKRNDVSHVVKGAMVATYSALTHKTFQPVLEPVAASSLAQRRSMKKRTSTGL
- Protocol Conditions: at 0.1 µM
inhibition for assorted compounds

# Molecular String, inhibition (%)
rows = [
    ("CCc1nn2ncccc2c1-c1ccnc(NC2CC2)n1", 1.44),
    ("COc1ccc(CNC(=O)c2ccc(-c3cc(-c4nnc(C)o4)ccc3C)cc2)cc1", 0.98),
    ("COc1ccc(-c2cc3c(N)ncnc3o2)cc1", -0.28),
    ("CN1CCC(n2cnc(-c3ccc(F)cc3)c2-c2ccnc(Nc3ccccc3)n2)CC1", 3.17),
]

###

- Target Desc: Serine/threonine-protein kinase 3 (Homo sapiens);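 also: reported value is the mean percent inhibition of MST2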
- Protocol Conditions: at 0.1 µM

# Compound, Target Desc, inhibition
rows = [
    ("COc1ccc(CNC(=O)c2ccc(-c3cc(-c4nnc(C)o4)ccc3C)cc2)cc1", "Serine/threonine-protein kinase 3 (Homo sapiens)", "6.56%"),
    ("Nc1nc(-c2ccc(F)cc2)c(-c2ccc3ncccc3n2)s1", "Serine/threonine-protein kinase 3 (Homo sapiens)", "7.16%"),
    ("Nc1ncc(-c2cccc(S(N)(=O)=O)c2)c2scc(-c3ccc(F)c(Cl)c3)c12", "Serine/threonine-protein kinase 3 (Homo sapiens)", "7.02%"),
    ("Fc1cccc(COc2ccc(Nc3ncnc4sc(-c5ccco5)cc34)cc2Cl)c1", "Serine/threonine-protein kinase 3 (Homo sapiens)", "6.61%"),
    ("CCn1c(-c2nonc2N)nc2c(C#CC(C)(C)O)nc(OC[C@H](N)c3ccccc3)cc21", "Serine/threonine-protein kinase 3 (Homo sapiens)", "9.64%"),
    ("CNC(=O)c1cc(-c2ccc(F)cc2)cc(-c2ccc(S(=O)(=O)N3CCCC3)cc2)c1N", "Serine/threonine-protein kinase 3 (Homo sapiens)", "0.82%"),
    ("CC1=C(C(=O)Nc2cc(Cl)c3[nH]ncc3c2)C(c2ccc(C(F)(F)F)cc2)CC(=O)N1 (stereo unspecified)", "Serine/threonine-protein kinase 3 (Homo sapiens)", "1.89%"),
    ("COc1ccc(-c2cc(-c3c[nH]nc3-c3ccccn3)ccn2)cc1", "Serine/threonine-protein kinase 3 (Homo sapiens)", "9.35%"),
    ("CNC(=O)c1cccc(C#Cc2cncnc2Nc2ccc(OCc3cccc(F)c3)c(Cl)c2)c1", "Serine/threonine-protein kinase 3 (Homo sapiens)", "5.85%"),
    ("O=C(Nc1n[nH]c2cc(-c3ccc(F)cc3)ccc12)C1CC1", "Serine/threonine-protein kinase 3 (Homo sapiens)", "2.91%"),
    ("COc1cccc(-c2c[nH]c3c(N/N=C/c4ccncc4)ncnc23)c1", "Serine/threonine-protein kinase 3 (Homo sapiens)", "4.97%"),
    ("FC(F)(F)c1cccc(-c2nn3ncccc3c2-c2ccnc(Nc3ccc4c(c3)OCCO4)n2)c1", "Serine/threonine-protein kinase 3 (Homo sapiens)", "5.41%"),
    ("COc1cc2ncn(-c3cc(OCc4ccccc4C(F)(F)F)c(C(=O)N(C)C)s3)c2cc1OC", "Serine/threonine-protein kinase 3 (Homo sapiens)", "1.15%"),
    ("c1ccc(-c2nc3n(c2-c2ccc4c(c2)OCO4)CCC3)nc1", "Serine/threonine-protein kinase 3 (Homo sapiens)", "1.29%"),
    ("CN1CCC(n2cnc(-c3ccc(F)cc3)c2-c2ccnc(N)n2)CC1", "Serine/threonine-protein kinase 3 (Homo sapiens)", "3.58%"),
    ("N#Cc1c(NC(=O)CN2CCOCC2)sc2c1CCCC2", "Serine/threonine-protein kinase 3 (Homo sapiens)", "4.7%"),
    ("CCN1CCC(CC(=O)Nc2n[nH]c3nnc(-c4cccc(F)c4F)cc23)CC1", "Serine/threonine-protein kinase 3 (Homo sapiens)", "3.62%"),
    ("CCCN(CCS(C)(=O)=O)Cc1ccc(-c2ccc3ncnc(Nc4ccc(OCc5cccc(F)c5)c(Cl)c4)c3c2)o1", "Serine/threonine-protein kinase 3 (Homo sapiens)", "0.87%"),
    ("CC(C)(CO)CNC(=O)c1ccc2c(c1)/C(=N/Nc1ccc(S(N)(=O)=O)cc1)C(=O)N2", "Serine/threonine-protein kinase 3 (Homo sapiens)", "31.6%"),
    ("CC(C)COC(=O)c1ccc2c(c1)/C(=C/Nc1ccc(S(N)(=O)=O)cc1)C(=O)N2", "Serine/threonine-protein kinase 3 (Homo sapiens)", "34%"),
    ("c1ccc(COc2ccc(Nc3ncnc4ccc(-c5ccco5)cc34)cc2)cc1", "Serine/threonine-protein kinase 3 (Homo sapiens)", "0.84%"),
    ("CNC(=O)c1cncc(/C=C/c2ccccc2Cl)c1", "Serine/threonine-protein kinase 3 (Homo sapiens)", "5.87%"),
    ("COc1ccc(-c2nn3ncccc3c2-c2ccnc(Nc3ccc4c(c3)OCCO4)n2)cc1", "Serine/threonine-protein kinase 3 (Homo sapiens)", "-0.94%"),
    ("COc1ccc2c(-c3ccnc(Nc4cccc(OC(F)(F)F)c4)n3)cnn2n1", "Serine/threonine-protein kinase 3 (Homo sapiens)", "9.08%"),
    ("NS(=O)(=O)c1ccc(Nc2ncc(-c3ccccc3)o2)cc1", "Serine/threonine-protein kinase 3 (Homo sapiens)", "7.3%"),
    ("COc1cccc(-n2ncc3c(N/N=C/c4ccc(F)cc4)ncnc32)c1", "Serine/threonine-protein kinase 3 (Homo sapiens)", "9.36%"),
    ("COc1ccc2[nH]c3c4[nH]c5ccc(OC)cc5c4c4c(c3c2c1)C(=O)NC4=O", "Serine/threonine-protein kinase 3 (Homo sapiens)", "14.2%"),
    ("COc1cc(Nc2nccc(Nc3ccc4c(C)n[nH]c4c3)n2)cc(OC)c1OC", "Serine/threonine-protein kinase 3 (Homo sapiens)", "5.15%"),
    ("NC(=O)c1sc(-n2cnc3ccc(C(F)(F)F)cc32)cc1OCc1ccccc1Br", "Serine/threonine-protein kinase 3 (Homo sapiens)", "3.43%"),
    ("Cc1cccc(Nc2ncc(-c3ccccc3)o2)c1", "Serine/threonine-protein kinase 3 (Homo sapiens)", "1.8%"),
    ("Clc1ccc(-c2nn3ncccc3c2-c2ccnc(Nc3ccccc3)n2)cc1", "Serine/threonine-protein kinase 3 (Homo sapiens)", "-0.25%"),
]
